Biological target: Cytochrome P450 1A1 (Homo sapiens, UniProt P04798)
Sequence (P04798 whole entry): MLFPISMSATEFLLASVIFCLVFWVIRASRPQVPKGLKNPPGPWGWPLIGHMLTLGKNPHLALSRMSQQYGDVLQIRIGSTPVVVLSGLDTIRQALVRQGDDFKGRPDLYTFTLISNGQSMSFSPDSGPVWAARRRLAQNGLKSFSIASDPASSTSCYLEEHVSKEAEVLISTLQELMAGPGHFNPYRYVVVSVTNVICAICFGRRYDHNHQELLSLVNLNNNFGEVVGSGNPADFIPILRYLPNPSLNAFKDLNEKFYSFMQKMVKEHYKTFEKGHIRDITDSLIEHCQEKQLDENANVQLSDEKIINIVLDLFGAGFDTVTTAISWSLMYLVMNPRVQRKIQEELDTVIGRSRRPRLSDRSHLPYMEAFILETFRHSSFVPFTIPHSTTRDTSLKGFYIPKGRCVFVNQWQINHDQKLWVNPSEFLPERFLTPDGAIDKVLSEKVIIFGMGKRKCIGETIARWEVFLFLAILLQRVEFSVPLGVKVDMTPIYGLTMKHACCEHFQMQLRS
Assay: Inhibition of recombinant CYP1A1 (unknown origin) expressed in Escherichia coli DH5alphaF'Iq coexpressing human NADPH-P450 reductase using E2-d4 as substrate after 10 mins in presence of NADP+
Type: ADME
measurement.name: Ki

COc1cc2c(cc1O)CC[C@@H]1[C@@H]2CC[C@]2(C)[C@@H](O)CC[C@@H]12: 88 µM

As a next step, examine the compound that follows.
# query: Ki of entry COc1cc2c(cc1O)[C@H]1CC[C@]3(C)[C@@H](O)CC[C@H]3[C@@H]1CC2
69 µM
